Catalogue of GI50 readings, one per entry.
System: NCI-H522 lung
Assay comment: NCI tumour cell line growth inhibition, 48 h
Quantity kind: GI50

- CC(=O)c1ccc2c(c1)C1C=CCC1[C@H](c1cc3c(cc1Br)OCO3)N2 (some centres undefined): 0.84 µM
- O=C1/C(=C/c2cccc(Br)c2)COc2ccc(O)cc21: 1.46 µM
- Cn1c(C(=O)c2ccncc2)cc2ccccc21: 78.5 µM
- COc1ccccc1C#Cc1ccccc1C#CCCCCO: 16.3 µM
- CC(C)c1c(-c2ccccc2)nc2c(C#N)c[nH]n2c1=O: 26 µM
- COc1cc(OC)c(C(=O)/C=C/c2cc3c(cc2OCc2ccccc2)OC(C)(C)CC3)cc1CC=C(C)C: 7.85 µM
- CCOC(=O)Nc1nc2ccc(OC)cc2s1: > 100 µM
- CC(=O)Oc1ccc(C23c4ccccc4C2(OC(C)=O)c2cc(OC(C)=O)ccc23)cc1 (centres undefined): 2.81 µM
- COc1cc2c(c(OC)c1OC)-c1ncc3c(OC)c(OC)c(OC)cc3c1C2: 19.3 µM
- O=[N+]([O-])c1cc(Cl)c2[nH]c3c(Cl)cc([N+](=O)[O-])cc3c2c1: 0.286 µM
- O=S(=O)(NCCNc1nccc(-c2c(-c3ccc(F)c(O)c3)nc3sccn23)n1)c1ccc(F)cc1: 3.31 µM
- COc1ccc(-c2ccncc2)cc1C(N)=O: > 25 µM
- O=C(/C=C/c1ccccc1)C(Br)C(Br)c1ccccc1 (centres undefined): 1.04 µM
- [C](#Cc1ccccc1)[Hg][C]#Cc1ccccc1: 19.4 µM

----------
System: SK-OV-3 ovarian
Assay comment: NCI tumour cell line growth inhibition, 48 h
Catalogue of GI50 readings, one per entry.
Quantity kind: GI50

* Nc1ccccc1C#C/C=C\C#Cc1ccc(OCCCNC(=O)c2cc3ccccc3[nH]2)cc1 | 4.36 µM
* COc1ccc2c(=O)cc(-c3ccccc3)[nH]c2c1 | 1.17 µM
* [C](#Cc1ccccc1)[Hg][C]#Cc1ccccc1 | > 100 µM
* CC(C)c1c(-c2ccccc2)nc2c(C#N)c[nH]n2c1=O | 27.2 µM
* Cc1nn[n-]n1.N.N.N.N.N.[Cl-].[Co+3] | > 100 µM
* O=C(Nc1cc(C(F)(F)F)ccc1Cl)c1ccc(NC2=C(Cl)C(=O)N(Cc3ccccc3)C2=O)cc1 | > 100 µM

----------
Catalogue of TGI readings, one per entry.
System: DMS 273 small cell lung
Assay comment: NCI tumour cell line growth inhibition, 48 h
Quantity kind: TGI

* Cc1c2ccncc2cc2c1[nH]c1ccccc12 | 4.96 µM
* Cc1nn[n-]n1.N.N.N.N.N.[Cl-].[Co+3] | > 100 µM
* C=C(CC(NC(=O)c1ccc(C(CC)Cc2cnc3nc(N)nc(N)c3n2)cc1)C(=O)O)C(=O)O (stereo not drawn) | > 100 µM
* C#Cc1cccc(N2C(=O)c3c(c(-c4ccccc4)c(-c4ccc(Cc5ccc(-c6c(-c7ccccc7)c7c(c(-c8ccccc8)c6-c6ccccc6)C(=O)N(c6cccc(C#C)c6)C7=O)cc5)cc4)c(-c4ccccc4)c3-c3ccccc3)C2=O)c1 | > 100 µM
* O=c1/c(=C/c2ccccc2[N+](=O)[O-])sc2nc3ccccc3n12 | > 46.4 µM
* Cc1ccccc1NC(=O)c1cc(-c2ccc([N+](=O)[O-])cc2)nc(=S)[nH]1 | > 100 µM
* CCOc1ccc2[nH]c3c(C)c4ccncc4c(C)c3c2c1 | 1.64 µM
* O=C(Cc1nc2ccccc2c(=O)n1-c1ccccc1Cl)c1ccncc1 | > 100 µM
* CCCNC(=O)C1C(=O)C(=O)N(CCC)C1=O (stereo not drawn) | > 100 µM
* CCN(CC)CCCNc1ccc2nc(C)n3c4ccc(O)cc4c(=O)c1c23 | 13.4 µM
* CCC(=O)c1c(NOC2OCC(OC(C)=O)C(OC(C)=O)C2OC(C)=O)nc(OC)n(C)c1=O (stereo not drawn) | > 100 µM
* O=C(c1nc2ccc([N+](=O)[O-])cc2[nH]c1=O)C(O)c1ccc2c(c1)OCO2 (stereo not drawn) | > 100 µM
* Cc1ccc(NC(=O)CCc2nc(N)nc(N)c2-c2ccccc2)cc1C | > 100 µM
